All figures here come from patent US6953789B2.

IC50 values by entry
molecular target: recombinant human MMP-13 (Homo sapiens, UniProt P45452); construct: made in house; host or cells: baculovirus (pBlueBac4 / Bac-N-Blue; virus made in Sf9), expressed in High-Five insect cells; culture supernatant used; test: Assay of MMP-13 inhibiting activity (fluorogenic peptide substrate); format: biochemical; conditions: Table 5; 37° C., 2 hours
Use µM as the unit, but write only the number.

Examples from the recorded data:
* CC(=O)S[C@@H]1CC(=O)N(Cc2ccc(Oc3ccccc3)cc2)[C@H]1C(=O)NCCO (relative stereo) | 0.089
* CCCNC(=O)OC[C@H]1[C@H](S)CC(=O)N1Cc1ccc(Oc2ccccc2)cc1 (relative stereo) | 0.0023
* CCCNC(=O)OC[C@H]1[C@H](SC(C)=O)CC(=O)N1Cc1ccc(Oc2ccccc2)cc1 (relative stereo) | 0.02

Q. Entry CC(=O)S[C@H]1CC(=O)N(Cc2ccc(Oc3ccccc3)cc2)[C@H]1C : reported IC50 = ?
A. 0.1

Q. Entry CCOC(=O)CNC(=O)[C@H]1[C@H](SC(C)=O)CC(=O)N1Cc1ccc(Oc2ccccc2)cc1 (relative stereo) : reported IC50 = ?
A. 0.05

Q. Entry CC(=O)S[C@@H]1CC(=O)N(Cc2ccc(Oc3ccccc3)cc2)[C@H]1C(=O)NCc1ccncc1 (relative stereo) : reported IC50 = ?
A. 0.12
